# credit: PubChem BioAssay AID1963874

- Tested on: 253994-281-T-J1-PDC KRAS-mutant spheroids with HUVEC/MSC, viability;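 further: spheroids exposed to agents for seven days before readout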
- measurement protocol: Anticancer human tumor 253994-281-T-J1-PDC patient-derived colorectal carcinoma cell line growth inhibition [KRAS2]
- conditions: curve of first compound; second compound 1 µM
// reported IC50 for each item listed
Number in nM, nothing else.

Below, each entry is followed by its recorded IC50 result.
• CCN1CCN(Cc2ccc(Nc3ncc(F)c(-c4cc(F)c5nc(C)n(C(C)C)c5c4)n3)nc2)CC1 + COc1cc2nc(C)nc(NC(C)c3cc(N)cc(C(F)(F)F)c3)c2cc1OC1CCOC1 = 321
• COC(=O)c1ccc2c(C(=Nc3ccc(N(C)C(=O)CN4CCN(C)CC4)cc3)c3ccccc3)c(O)[nH]c2c1 + CC1OCC2(CCN(c3cnc(Sc4ccnc(N)c4Cl)c(N)n3)CC2)C1N = 1460
• CCN1CCN(Cc2ccc(Nc3ncc(F)c(-c4cc(F)c5nc(C)n(C(C)C)c5c4)n3)nc2)CC1 + CC1OCC2(CCN(c3cnc(Sc4ccnc(N)c4Cl)c(N)n3)CC2)C1N = 186
• COC(=O)c1ccc2c(C(=Nc3ccc(N(C)C(=O)CN4CCN(C)CC4)cc3)c3ccccc3)c(O)[nH]c2c1 + C=CC(=O)N1CCN(c2nc(OCC3CCCN3C)nc3c2CCN(c2cccc4cccc(C)c24)C3)CC1CC#N = 2310
• CC(=O)Nc1cccc(-n2c(=O)n(C3CC3)c(=O)c3c(Nc4ccc(I)cc4F)n(C)c(=O)c(C)c32)c1 + C=CC(=O)N1CCN(c2nc(OCC3CCCN3C)nc3c2CCN(c2cccc4cccc(C)c24)C3)CC1CC#N = 0.616

Please examine the following record next.
GET /values?readout=IC50&item= COC(=O)c1ccc2c(C(=Nc3ccc(N(C)C(=O)CN4CCN(C)CC4)cc3)c3ccccc3)c(O)[nH]c2c1 + COc1cc2nc(C)nc(NC(C)c3cc(N)cc(C(F)(F)F)c3)c2cc1OC1CCOC1
4650
